tested on: SW-620 colon; experiment: NCI tumour cell line growth inhibition, 48 h; in the data active = GI50 below about 0.43 µM; inactive = the rest
*1 amine or outer side, *2 acyl side, *3 side chain or, on linkers, in order; H or OH if unused. Where a SMILES comes first, the peptide text is derived from it. Bridges are numbered along the chain shown (N, C = ends). [ ]: non-standard residue; d: D form. The star is where a group is joined. Phe(3,5-F2) = N[C@@H](Cc1cc(F)cc(F)c1)C(=O)O; Pro(4R-Me) = C[C@H]1CN[C@H](C(=O)O)C1; aThr = C[C@H](O)[C@H](N)C(=O)O; Pip = O=C(O)[C@@H]1CCCCN1; X10 = Fc1cc(C2CC2)ccc1N*; Abu = CC[C@H](N)C(=O)O; CO = O=C([*:1])[*:2]
Pick from class 1 for active, class 0 for inactive when you respond.

Example entries and their recorded answers appear below.
{"columns": ["molecule", "systemTested", "categoryLabel"],
 "data": [
  ["O=C(Nc1ccc(Oc2cccc(Cl)c2)c(Cl)c1)c1cnccn1", "SW-620 colon", "class 1"],
  ["Cc1cccc(NC2=C(Cl)C(=O)N(Cc3ccc(Cl)cc3)C2=O)c1", "SW-620 colon", "class 0"],
  ["O=C(CNc1c(Cl)cccc1Cl)Nc1ccc(-c2nc3ccccc3s2)cc1", "SW-620 colon", "class 0"],
  ["CCCCCCCCCCCC[C@H](O)[C@H]1CC[C@H]([C@H](O)CCCC[C@H](O)CCCCC[C@@H](O)CC2=C[C@H](C)OC2=O)O1", "SW-620 colon", "class 0"],
  ["CC[C@@H]1NC(=O)[C@@H]2CCCCN2C(=O)[C@@H]2CCCN2C(=O)[C@@H](NC(=O)[C@H](Cc2cc(F)cc(F)c2)NC(=O)Nc2ccc(C3CC3)cc2F)[C@H](C)OC(=O)[C@@H]2C[C@@H](C)CN2C1=O ({X10-CO}-[Phe(3,5-F2)][aThr]P[Pip][Abu][Pro(4R-Me)]; ester 2-C)", "SW-620 colon", "class 1"],
  ["Fc1ccc(-c2nnc3sc(-c4cc(Cl)cc(Cl)c4)nn23)cc1Cl", "SW-620 colon", "class 0"]
]}

Moving on to the next molecule.
What is the recorded call for this molecule in the test? [N-]=[N+]=NCCCn1c2c(c3ccccc3c1=O)C(=O)c1cc(Br)ccc1-2 class 0
